// provenance: ChEMBL document CHEMBL1153702

system: MCF7; experiment: Cell cycle arrest in human MCF7 cells assessed as accumulation at G2/M phase after 24 hrs by flow cytometry; assay type: functional
Readout name: Activity (%)
Field: numeric (%). Do not append units.

Report Activity, nothing else, for this compound: Cc1ccc(Nc2nccc(-c3ccnc4ccccc34)n2)cc1
64.7

Please report Activity for the following compound: Cn1cnc2c(NCc3ccccc3)nc(NCCO)nc21 [OLOMOUCINE]
23.2

Identify measured Activity associated with Cc1nc2ccccn2c1-c1ccnc(Nc2ccc(C=O)s2)n1
22.2

Query Activity for Cc1ccc(Nc2nccc(-c3c(C)nc4ccccn34)n2)cc1
14.7

---

target: Cyclin-dependent kinase 1/cyclin B1 (Homo sapiens) (UniProt P06493+P14635); conditions: at 7 µM
Sequence (P06493 whole entry, looked up): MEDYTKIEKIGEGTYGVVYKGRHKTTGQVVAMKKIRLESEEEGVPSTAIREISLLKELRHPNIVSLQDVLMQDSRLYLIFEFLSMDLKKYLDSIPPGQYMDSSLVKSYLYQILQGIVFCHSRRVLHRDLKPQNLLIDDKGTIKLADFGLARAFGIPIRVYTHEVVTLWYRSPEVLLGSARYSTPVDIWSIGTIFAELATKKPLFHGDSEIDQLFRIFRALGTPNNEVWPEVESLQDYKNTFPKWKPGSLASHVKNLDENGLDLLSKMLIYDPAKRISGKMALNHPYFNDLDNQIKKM
Sequence (P14635 whole entry, looked up): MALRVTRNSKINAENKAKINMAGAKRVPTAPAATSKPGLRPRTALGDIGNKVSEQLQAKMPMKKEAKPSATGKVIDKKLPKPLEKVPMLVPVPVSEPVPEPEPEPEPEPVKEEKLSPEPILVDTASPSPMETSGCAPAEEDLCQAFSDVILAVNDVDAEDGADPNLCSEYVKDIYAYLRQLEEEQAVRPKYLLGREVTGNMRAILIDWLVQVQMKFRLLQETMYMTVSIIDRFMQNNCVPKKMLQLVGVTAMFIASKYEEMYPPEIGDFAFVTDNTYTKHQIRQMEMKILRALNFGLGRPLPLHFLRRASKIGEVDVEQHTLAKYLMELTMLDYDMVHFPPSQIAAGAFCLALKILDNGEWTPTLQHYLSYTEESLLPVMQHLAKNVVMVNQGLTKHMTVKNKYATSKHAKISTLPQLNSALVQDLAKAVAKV
Description: Inhibition of human CDK1/cyclinB at 7 uM
Respond with Y for inhibition values of 60% and above, N for values below.

Please check the record Cc1nc2ccccn2c1-c1ccnc(Nc2ccc(C=O)s2)n1 and state if its inhibition is at or above 60%.
N

Reported inhibition at or above 60%? Cc1ccc(Nc2nccc(-c3ccnc4ccccc34)n2)cc1
Y

// inclusive: inhibition at least 60%? input: Cc1ccc(Nc2nccc(-c3cnc4ccccc4c3)n2)cc1
Y

---

system: HCT-15; assay: Cytotoxicity against human HCT15 cells at 50 uM after 48 hrs by SRB assay; format: functional; settings: HCT-15, 48 h
Consider the following compounds; for each one, report its inhibition at 50 µM.
Answer in %, number only, no unit symbol.

Output inhibition at 50 µM of Cc1ccc(Nc2nccc(-c3c(C(F)(F)F)nc4ccccn34)n2)cc1
100

State its inhibition at 50 µM: FC(F)(F)c1ccc(Nc2nccc(-c3c(C(F)(F)F)nc4ccccn34)n2)cc1
94.4

Provide only the value of recorded inhibition at 50 µM for O=c1[nH]cc(F)c(=O)[nH]1
71.3

For the compound Cc1ccc(Nc2nccc(-c3ccnc4ccccc34)n2)cc1 , give its reported inhibition at 50 µM.
100

Given the compound Cc1nc2ccccn2c1-c1ccnc(Nc2ccc(C=O)s2)n1 , write its reported inhibition at 50 µM.
85.4

Consider the compound FC(F)(F)c1ccc(Nc2nccc(-c3ccnc4ccccc34)n2)cc1 and give its recorded inhibition at 50 µM.
100

---

system: HCT-15; assay: Cytotoxicity against human HCT15 cells at 50 uM after 48 hrs by SRB assay; assay type: functional; conditions: HCT-15, 48 h
So I've got a bunch of molecules here, and I need their inhibition at 50 µM values.
Return type: number; implicit unit %.

Identify measured inhibition at 50 µM associated with Cc1ccc(Nc2nccc(-c3c(C)nc4ccccn34)n2)cc1
95.2

Indicate the recorded inhibition at 50 µM value for this molecule: Cc1nc2ccccn2c1-c1ccnc(Nc2ccc(C(F)(F)F)cc2)n1
88.6

Please report inhibition at 50 µM for the following molecule: Cc1ccc(Nc2nccc(-c3cnc4ccccc4c3)n2)cc1
30.3

Write down inhibition at 50 µM measured for item FC(F)(F)c1ccc(Nc2nccc(-c3cnc4ccccc4c3)n2)cc1
24

---

tested on: MCF7; assay: Cell cycle arrest in human MCF7 cells assessed as accumulation at G1 phase after 24 hrs by flow cytometry; assay type: functional
Readout name: Activity

Consider the compound Cc1nc2ccccn2c1-c1ccnc(Nc2ccc(C=O)s2)n1 . State its measured Activity.
54.5%

For the compound Cc1ccc(Nc2nccc(-c3c(C)nc4ccccn34)n2)cc1 , give its reported Activity.
60.8%

Report measured Activity; entry is Cn1cnc2c(NCc3ccccc3)nc(NCCO)nc21
60.6%

Return Activity for the following compound: Cc1ccc(Nc2nccc(-c3ccnc4ccccc34)n2)cc1
18.7%

---

Can you tell me inhibition at 50 µM for the items I'm about to list?
test system: U-251; experiment: Cytotoxicity against human U251 cells at 50 uM after 48 hrs by SRB assay; format: functional; settings: U-251, 48 h
All answers are understood in %, so give the number only.

Fill in reported inhibition at 50 µM for this entry: Cc1ccc(Nc2nccc(-c3c(C(F)(F)F)nc4ccccn34)n2)cc1
100

Determine from records and report inhibition at 50 µM for Nc1nccc(-c2cnc3ccccc3c2)n1
38.5

Provide one value: measured inhibition at 50 µM of FC(F)(F)c1ccc(Nc2nccc(-c3c(C(F)(F)F)nc4ccccn34)n2)cc1
100

Return reported inhibition at 50 µM. Input molecule: Cc1ccc(Nc2nccc(-c3cnc4ccccc4c3)n2)cc1
87.7

For the molecule Cc1ccc(Nc2nccc(-c3c(C)nc4ccccn34)n2)cc1 , report inhibition at 50 µM.
100

Item O=c1[nH]cc(F)c(=O)[nH]1 : provide inhibition at 50 µM
64.2

Write down inhibition at 50 µM measured for item Cc1nc2ccccn2c1-c1ccnc(Nc2ccc(C(F)(F)F)cc2)n1
85.6

Provide only the value of recorded inhibition at 50 µM for Cc1nc2ccccn2c1-c1ccnc(Nc2ccc(C=O)s2)n1
57.8

// Input: FC(F)(F)c1ccc(Nc2nccc(-c3cnc4ccccc4c3)n2)cc1 . Output its inhibition at 50 µM only.
49.8

Indicate its recorded inhibition at 50 µM; the molecule in question is Nc1nccc(-c2c(C(F)(F)F)nc3ccccn23)n1
92.2

Give the measured inhibition at 50 µM for Cc1ccc(Nc2nccc(-c3ccnc4ccccc34)n2)cc1
100

Give me measured inhibition at 50 µM, please, for this molecule: FC(F)(F)c1ccc(Nc2nccc(-c3ccnc4ccccc34)n2)cc1
91.8

Supply reported inhibition at 50 µM belonging to this molecule: Nc1nccc(-c2ccnc3ccccc23)n1
100
